Entries and their melting point values follow.
Where a name gives a salt, the structure may show the parent alone.

| compound | melting point |
| --- | --- |
| CC(C)(C)OC(=O)N[C@@H](CSSC[C@H](NC(=O)OC(C)(C)C)C(=O)N1CCn2nc(-c3ccccc3)cc2C1CC1CCCCC1)C(=O)N1CCn2nc(-c3ccccc3)cc2C1CC1CCCCC1 (mixture of isomers) | 129 to 132 °C |
| N[C@@H](CSSC[C@H](N)C(=O)N1CCn2nc(-c3ccccn3)cc2C1CCc1ccccc1)C(=O)N1CCn2nc(-c3ccccn3)cc2C1CCc1ccccc1 (mixture of isomers) (as salt: hydrochloride) | 232 to 234 °C (dec.) |
| CC(C)(C)OC(=O)N[C@@H](CSSC[C@H](NC(=O)OC(C)(C)C)C(=O)N1CCn2nc(-c3ccncc3)cc2C1CCc1ccccc1)C(=O)N1CCn2nc(-c3ccncc3)cc2C1CCc1ccccc1 (mixture of isomers) | 149 to 152 °C |
| COc1cc(-c2cc3n(n2)CCN(C(=O)[C@H](CSSC[C@H](NC(=O)OC(C)(C)C)C(=O)N2CCn4nc(-c5cc(OC)c(OC)c(OC)c5)cc4C2CCc2ccccc2)NC(=O)OC(C)(C)C)C3CCc2ccccc2)cc(OC)c1OC (mixture of isomers) | 130 to 136 °C |
| N[C@@H](CSSC[C@H](N)C(=O)N1CCn2nc(-c3ccccc3)cc2C1CC1CCCCC1)C(=O)N1CCn2nc(-c3ccccc3)cc2C1CC1CCCCC1 (mixture of isomers) (as salt: hydrochloride) | 218 °C (dec.) |
| CC(C)(C)OC(=O)N[C@@H](CSSC[C@H](NC(=O)OC(C)(C)C)C(=O)N1CCn2nc(-c3cccs3)cc2C1CCc1ccccc1)C(=O)N1CCn2nc(-c3cccs3)cc2C1CCc1ccccc1 (mixture of isomers) | 105 to 112 °C |
| N[C@@H](CSSC[C@H](N)C(=O)N1CCn2nc(-c3ccccc3)cc2[C@H]1CC1CCCCC1)C(=O)N1CCn2nc(-c3ccccc3)cc2[C@H]1CC1CCCCC1 (as salt: hydrochloride) | 212 to 217 °C |
| CCCCC1c2cc(-c3ccccc3)nn2CCN1C(=O)[C@H](CSSC[C@H](NC(=O)OC(C)(C)C)C(=O)N1CCn2nc(-c3ccccc3)cc2C1CCCC)NC(=O)OC(C)(C)C (mixture of isomers) | 95 to 102 °C |
| N[C@@H](CSSC[C@H](N)C(=O)N1CCn2nc(-c3cccnc3)cc2C1CCc1ccccc1)C(=O)N1CCn2nc(-c3cccnc3)cc2C1CCc1ccccc1 (mixture of isomers) (as salt: hydrochloride) | 223 °C (dec.) |
